Target: LuxR (Aliivibrio fischeri)
Construct: expressed in E. coli DH5alpha receiver cells; GFP reporter under the Plux* promoter
Sequence (P12746 whole entry): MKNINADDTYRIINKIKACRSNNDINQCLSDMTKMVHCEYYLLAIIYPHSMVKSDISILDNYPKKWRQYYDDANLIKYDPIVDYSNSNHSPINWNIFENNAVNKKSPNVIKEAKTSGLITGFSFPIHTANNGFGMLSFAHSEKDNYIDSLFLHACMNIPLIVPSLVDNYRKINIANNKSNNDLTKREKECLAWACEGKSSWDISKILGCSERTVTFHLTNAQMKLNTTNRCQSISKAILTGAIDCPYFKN
Test: GFP reporter dose-response in E. coli, flow cytometry
Assay type: cell-based, Escherichia coli
Conditions: chemically pure signal molecule; M9 medium, 37 °C, 12 h; transcriptional reporter
measured-parameter: EC50

input: Request: EC50, test system LuxR (Aliivibrio fischeri), entry CCCC(=O)CC(=O)N[C@H]1CCOC1=O [3OC6, 3-oxo-C6-HSL]
output: 20 nM

* * *

Target: FdeR (Herbaspirillum seropedicae, UniProt D8J0W4)
Construct: gene nodD; expressed in E. coli DH5alpha receiver cells; GFP reporter under the cognate promoter
Sequence (D8J0W4 1-309): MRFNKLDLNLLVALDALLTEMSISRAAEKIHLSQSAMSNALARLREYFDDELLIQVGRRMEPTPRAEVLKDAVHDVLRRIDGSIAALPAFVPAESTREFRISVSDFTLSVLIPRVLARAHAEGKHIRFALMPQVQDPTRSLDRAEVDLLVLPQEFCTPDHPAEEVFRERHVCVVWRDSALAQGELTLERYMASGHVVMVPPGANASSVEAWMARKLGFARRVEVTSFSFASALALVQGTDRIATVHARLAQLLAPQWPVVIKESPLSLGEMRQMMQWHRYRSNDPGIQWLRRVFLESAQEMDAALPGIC
Assay: cell-based
Set-up: species or system Escherichia coli DH5alpha; E. coli receiver cells, GFP reporter under aTF-responsive promoter, flow cytometry, dose-response with pure synthetic signal molecules
Details: Synthetic [column D], synthetic pure signal, replicate
measured-parameter: EC50 (µM)
Write it as a number; the unit µM goes unstated.

input: May I ask what EC50 has been recorded for O=C1C[C@@H](c2ccc(O)cc2)Oc2cc(O)cc(O)c21 [NG, naringenin] ?
output: 47.3
